The entries below come with measured ED50 values attached.
Tested on: mice
Assay: Cardiazol shock (anticonvulsive / anxiolytic effect)
Format: in vivo
Settings: Mus musculus, 1 h, oral, one hour before 150 mg/kg s.c. Cardiazol, 50% of animals with marked anticonvulsive effect
property_name: ED50 (mg/kg)

chemical_smiles | property_name | numeric_readout
CN1C(=S)CN=C(c2ccccc2Cl)c2nc(Cl)ccc21 | ED50 | 3.3
O=C1CN=C(c2ccccc2)c2nc(Cl)ccc2N1 | ED50 | 6.3
O=C1CN=C(c2ccccc2Cl)c2nc(Cl)ccc2N1 | ED50 | 2.72
